// data source = patent US20100272750A1

- study target: HLA DRB1*0404 (human)
- assay protocol: competition with 125I probe peptide, purified HLA; crude peptide batch
assay metric: pIC50
Keep it numeric: pIC50 is minus log10 of the concentration in mol/L.

Could you share which pIC50 value was measured for LQAIELQLTLETIYN (modifications not checked) [HPV16.E2.070 HTL epitope] ?
6.55
